test system: COLO 205 colon; assay: NCI-60 one-dose screen, 48 h (100 = growth as untreated, 0 = no growth, -100 = all killed); conditions: 10 µM
About 83,000 compounds went through this panel and 20% of them were active in at least one assay; those are over-represented in the sample as a whole.
Kindly apply the following: 1.0 if growth is less than 70%, 0.0 in every other case.

Solved cases (4 shown):
# compound-structure, label-value
records = [
    ("Nc1c(C(=O)Nc2ccccc2)sc2nc3c(cc12)CCCC3", 1.0),
    ("O=C(Nc1ccc(CN2CCc3nc4cc(O)c(O)cc4cc32)cc1)c1ccc(Cl)c(Cl)c1", 0.0),
    ("NC1(C(=O)O)CSSC1", 0.0),
    ("Oc1[nH]c2ccc(Cl)cc2c1/C=c1/ccc2c(c1)N=C(c1cccs1)N=2", 0.0),
]

Answer whether the molecule COC(=O)[C@@H]1[C@H](O)[C@H](C)[C@H](O)[C@@](C)(O)/C=C\C=C(C)C(=O)Nc2c(C)c(OC(C)=O)c3c(c2O)C(=O)C(C)=C2OCOC(=C23)C(C)=C[C@@](C)(O)[C@H](O)[C@@H](C)[C@H]1OC(C)=O has growth strictly less than 70%
0.0

is_below(growth, 70%) for CSCCCNC(=O)c1ccc2c(c1)/C(=C/c1[nH]c(C)cc1C)C(=O)N2 ?
1.0

Identify whether the molecule Cc1cc(N(CCCNc2ccnc3cc(Cl)ccc23)Cc2ccc3c(c2)OCO3)nc(N2CCCCC2)n1 records growth below 70%.
1.0

Regarding O=C(c1cccs1)c1ccccc1Cc1ccccc1 , kindly confirm whether its growth is beneath 70%.
0.0

For this molecule, is growth lower than 70%? O=C(O)c1ccc(P(=O)(O)O)c([N+](=O)[O-])c1
0.0

====

system: ACHN renal; experiment: NCI-60 one-dose screen, 48 h (100 = growth as untreated, 0 = no growth, -100 = all killed); settings: 10 µM
About 83,000 compounds went through this panel and 20% of them were active in at least one assay; those are over-represented in the sample as a whole.
Param label: returns met when growth < 70%, returns not met otherwise, including exact equality.

Use these answered entries as a reference point.
# compound, system, label-value
rows = [
    ("COc1cc(-c2cc(/C=C3\\C(=O)Nc4ccc(Cl)cc43)[nH]n2)cc(OC)c1OC", "ACHN renal", "met"),
    ("N#CSCC1CC(O)(c2ccccc2)CC(c2ccc(Cl)cc2)O1 (stereo not given)", "ACHN renal", "met"),
    ("COc1cc(C(=C2O[C@@H]([C@H]3COC(C)(C)O3)[C@H]3OC(C)(C)O[C@@H]23)c2cc(OC)c(OC)c(OC)c2)cc(OC)c1OC", "ACHN renal", "not met"),
    ("CN(C)CCS(=O)(=O)CCN(C)C", "ACHN renal", "not met"),
]

Problem: For the compound COc1ccc(-c2nc3ncccn3c2-c2nnc(-c3ccsc3C)o2)cc1 , is growth under 70%?
not met

Would you kindly verify if growth of COc1ccc(-c2nc(-c3nc4cc(Cl)c(Cl)cc4[nH]3)c3ccccn23)cc1 is strictly less than 70%?
met

Below 70% on growth? Entry c1ccc([C@H]2CN3CCSC3=N2)cc1
not met

Consider the compound COC(=O)C(=C\c1ccc2c(c1)OCO2)/C(=C/c1ccc2c(c1)OCO2)C(=O)OC . Is its growth strictly less than 70%?
not met

Consider COc1ccc(-n2c(SCc3cc(OC)c(OC)c(OC)c3)nc3ccc(C)cc3c2=O)cc1 . Does its growth lie strictly below 70%?
met

Regarding COc1cccc(Cn2c(-c3nonc3N)nc3ccccc32)c1 , kindly confirm whether its growth is beneath 70%.
met

====

test system: DU-145 prostate; experiment: NCI-60 one-dose screen, 48 h (100 = growth as untreated, 0 = no growth, -100 = all killed); settings: 10 µM
About 83,000 compounds went through this panel and 20% of them were active in at least one assay; those are over-represented in the sample as a whole.
# growth annotations
Answer with a number only, understood to be in %.

Hey, DU-145 prostate data for COc1ccc(-c2nc(-c3nc4ccc(Cl)cc4[nH]3)c3ccccn23)cc1 : growth came out at 25.6

====

System: NCI-H322M lung
Assay: NCI-60 one-dose screen, 48 h (100 = growth as untreated, 0 = no growth, -100 = all killed)
Conditions: 10 µM
Procedure: Growth inhibition of the NCI-H322M human Non-Small Cell Lung tumor cell line is measured as a screen for anti-cancer activity. Cells are grown in 96 well plates and exposed to the test compound for 48 hours. Compounds are tested at a single concentration, which is 10^-5 M for most compounds. The reported endpoint is percent growth (GI% or GIPRCNT), where numbers from 0 - 100% represent growth inhibition, and numbers from -100% - 0 represent cell death. […]
This is part of a sample that, as a whole, favours compounds with a hit. Of some 83,000 tested, about 20% had one in any assay. Activity calls are given as the source filed them. Rule for the calls: active = growth percent below 10; inactive = the rest.
measured-endpoint: growth

Consider the worked cases shown below.
# compound, result
data = [
    ("CCN(CC)CCOc1nc2ccc(OC)cc2c2c1-c1ccc(OC)cc1C2=O", "-13.2% (active)"),
    ("COc1cc(-c2nnc(-c3c(-c4ccc(F)cc4)nc4ccccn34)o2)cc(OC)c1OC", "91.8% (inactive)"),
    ("COc1ccc2c(c1)[n+]([O-])c(C#N)c(NC(=O)c1ccco1)[n+]2[O-]", "95.2% (inactive)"),
    ("Nc1nc(N=Nc2ccc(O)cc2)cc(=O)[nH]1", "104% (inactive)"),
    ("CCCCCCc1cc(N=Nc2ccc(S(=O)(=O)Nc3cc(C)nc(C)n3)cc2)c(O)cc1O", "93.5% (inactive)"),
    ("N=C(N)c1ccc(-c2ccc(-c3ccccc3)o2)nc1", "91.7% (inactive)"),
    ("CN(C)CCOc1nc2ccccc2c2c1-c1ccc(Cl)cc1C2=O", "-34% (active)"),
    ("COc1cc(C2CC(c3ccc(Nc4ccnc5cc(Cl)ccc45)cc3)=NN2c2ccc(Cl)cc2)cc(OC)c1OC (stereo not given)", "75.8% (inactive)"),
    ("O=C(C[n+]1ccccc1)c1ccc2ccccc2c1", "95.2% (inactive)"),
]

Let us move to another entry and its growth.
With NCI-H322M lung as the test system, CCCCN(CCCC)CCCCCCCCC(O)c1cc2ccccc2c2ccccc12 (stereo not given) showed growth of 84.5% (inactive)

====

tested on: NCI-H226 lung; experiment: NCI-60 one-dose screen, 48 h (100 = growth as untreated, 0 = no growth, -100 = all killed); conditions: 10 µM
Compounds without any hit were thinned out: in the full panel of roughly 83,000, 20% have a hit.
growth values, listed per item
Please state the figure in %; there is no need to write the unit.

# molecule, number
records = [
    ("O=S(=O)(Nc1ccccn1)c1ccc(N=Nc2ccc(O)c3ncccc23)cc1", 21.3),
]

Test item O=C(CCCCCCC(=O)Nc1cccnc1)NO ; NCI-H226 lung; reported growth was 86.5

Observed growth, NCI-H226 lung, COc1cccc(Cn2c(-c3nonc3N)nc3ccccc32)c1 : 49.2

NCI-H226 lung growth of Cn1c([N+](=O)[O-])cnc1/C=C1\Oc2ccc(Cl)cc2C1=O is -27.2

Entry Cc1nc2ccccc2c(N)c1-c1cc(C)c2c(C)nc3ccccc3c2n1 , tested on NCI-H226 lung, has a reported growth of 98.8

Summary line: CCCCN(CCCC)CCCCCCCCC(O)c1cc2ccccc2c2ccccc12 (configuration not stated) , NCI-H226 lung, reported growth = 80.2

Let me check: CCN(CC)CCC(CNc1c(C)cnc2cc(Cl)ccc12)c1ccc(Cl)cc1 (configuration not stated) , system NCI-H226 lung, measured growth is 102

Sample Cc1ccc(NC(=O)Nc2nc3ccccc3s2)cc1NC(=O)Nc1nc2ccccc2s1 , system: NCI-H226 lung. Its growth is 90

Test item Nc1c(C(=O)Nc2cccc(Br)c2)sc2nc3c(cc12)C(O)CCC3 (configuration not stated) ; NCI-H226 lung; reported growth was 68.6

NCI-H226 lung growth of CSc1nn(-c2ccccc2)c2ncnc(Oc3ccc(C)cc3)c12 is 81.4

Summary line: Nc1nc(N)c2c(ccc3nccc32)[nH]1 , NCI-H226 lung, reported growth = 123

Form field, growth with NCI-H226 lung, item COc1ccc(-c2cc(/C=C3\C(=O)Nc4ccc(OC)cc43)[nH]n2)cc1 : 69.8

====

Catalogue of growth values
system: TK-10 renal; assay: NCI-60 one-dose screen, 48 h (100 = growth as untreated, 0 = no growth, -100 = all killed); conditions: 10 µM
This is part of a sample that, as a whole, favours compounds with a hit. Of some 83,000 tested, about 20% had one in any assay.
Reply numerically in %, unit not repeated.

Consider the worked cases shown below.
# compound, system, growth / %
rows = [
    ("CC(C)=CCc1cc(O)cc2c1OC(C=C(C)C)C1=C2C(=O)C2=C(NCCS2(=O)=O)C1=O (stereo not given)", "TK-10 renal", 106),
    ("O=C(Nc1cccc(-n2cc(-c3ccncc3)c(-c3ccc(O)c(Cl)c3)n2)c1)Nc1cccc(C(F)(F)F)c1", "TK-10 renal", -0.882),
    ("COc1ccc2c(c1)O/C(=C\\c1ccc([N+](=O)[O-])s1)C2=O", "TK-10 renal", 42.5),
    ("Nc1nc(N=Nc2ccc(O)cc2)cc(=O)[nH]1", "TK-10 renal", 120),
    ("CN(C)CCN1C(=O)c2cccc3c(-c4ccc5ncn(C6CCCCC6)c5c4)ccc(c23)C1=O", "TK-10 renal", 26.7),
    ("N#Cc1ncc(Br)c(NC2CCCCCC2)n1", "TK-10 renal", 134),
    ("O=C1C(c2ccccc2)C2C=CC(C2)N1O (stereo not given)", "TK-10 renal", 101),
    ("CCCCCCCCCCCCCCCCCCOCC(COCCOCC[N+]1(CCCCCC(=O)[O-])CCCC1)Oc1ncccn1 (stereo not given)", "TK-10 renal", 7.83),
    ("COc1ccc(-c2nn(-c3cccc(NC(=O)c4cccc(C(F)(F)F)c4)c3)cc2-c2ccncc2)cc1Cl", "TK-10 renal", 41),
]

// next entry
Per the records, this compound ( COC(=O)c1ccc(=O)oc1 ) has growth equal to 103
